- experiment.notes: in vitro
- Format: cell-based, Human
- condition.parameters: human, hela cells
outcome.measure: MCC at 120 h (µg/mL)
Dear colleague, please return just the value in µg/mL, with no unit written.

The recorded MCC at 120 h for COc1ccc(C2CN(O)C3(C)CCCCC23)cc1OC (stereo not shown) [Example 7] is 100

Attribution: patent US3989714A
